biological target: T1, DLG1 PDZ2 (human, aa 311-407) (human, UniProt Q12959 311-407); assay: MST; FITC-labelled peptide fixed at 25-50 nM, PDZ domain titrated (1:1 dilution series); 50 mM Tris-HCl pH 7.4, 0.1% Tween-20; thermophoresis and T-Jump signal; triplicate; conditions: both partners purified
T1 construct: DLG1, human, PDZ2, aa 311-407 in a modified pRSET vector; also called DLG PDZ2; source: E. coli BL21 Gold (DE3), purified (Ni2+ Sepharose)
T1 sequence (Q12959 311-407): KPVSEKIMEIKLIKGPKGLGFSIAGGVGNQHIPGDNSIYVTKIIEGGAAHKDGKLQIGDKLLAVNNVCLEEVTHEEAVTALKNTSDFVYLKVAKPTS
Square brackets hold non-standard residues; d marks the D form. Ends that are not written are not given here. * marks the point of attachment. FITC = O=C1OC2(c3ccc(O)cc3Oc3cc(O)ccc32)c2ccc(NC(=S)*)cc21; pS = N[C@@H](COP(=O)(O)O)C(=O)O
recorded metric: Kd (µM)

Problem: Query (binder): {FITC}-KREFIESNV (also called Mimetic TANC1; source: synthetic peptide, bought: GeneCust) [FITC-KREFIESNV (TANC1 peptide, phosphomimetic at p-6)] ; field requested: Kd
Result: 5.1

a. {FITC}-KR[pS]FIESNV (C-terminal nine residues of TANC1, human; also called pTANC1; source: synthetic peptide, bought: GeneCust) [FITC-KRpSFIESNV (TANC1 peptide, p-6 phosphorylated)]
b. {FITC}-RLTSTRL (C-terminal seven residues of RPS6KA2, human; source: synthetic peptide, bought: GeneCust) [FITC-RLTSTRL (RPS6KA2 peptide, unphosphorylated)]
c. {FITC}-HTNETEL (also called Mimetic MCC; source: synthetic peptide, bought: GeneCust) [FITC-HTNETEL (MCC peptide, phosphomimetic at p-1)]
Problem: With regard to Kd, arrange the entries in ascending order, please. List the labels, following the order given in the request.
Result: a, c, b
(a: 6.1 µM, c: 21 µM, b: 95 µM)

All figures here come from paper PMC6100724.
